# assay_remarks: Human HepG2 cell viability assay in 384 well format
# Type: toxicity, cell-based
# Parameters: dose 125 nL, time 70.5 hour; concentration not given beside the values
# experimental_setup: HepG2 cells, read-out: Inhibition
Reported cytotoxicity at 70.5 h values for a set of compounds
Numbers only; they are read as %.

Some compounds with recorded cytotoxicity at 70.5 h:
compound=CC(C)C(=O)N1CCC(Cc2nccnc2Nc2ccccn2)CC1 unit_symbol=% value_measured=-5.25
compound="CCc1ccc(C(NC(=O)CN(C)S(C)(=O)=O)C(C)(C)C)o1 (centres undefined)" unit_symbol=% value_measured=-7.8
compound=COc1cccc([C@@H]2CCN(Cc3cccc(C)n3)C[C@H]2O)c1 unit_symbol=% value_measured=-9.27
compound="Cc1csc(CN2CCC3(CC2)COC(COc2ccccn2)C3)n1 (centres undefined)" unit_symbol=% value_measured=-5.82
compound="CC(C)c1nc2n(n1)CC(NCCc1cccs1)CC2 (centres undefined)" unit_symbol=% value_measured=-5.42

Name the reported cytotoxicity at 70.5 h value associated with the compound CCn1ccnc1S(=O)(=O)Cc1ccc(C(N)=O)cc1
-2.48

May I ask what cytotoxicity at 70.5 h has been recorded for Cc1nc(CN2C(=O)COC3(CCN(C(N)=O)CC3)C2C)cs1 (centres undefined) ?
3.95

Form field: reported cytotoxicity at 70.5 h of CCOCc1cnc2n1CCN(C(=O)c1ccccc1)C2C (centres undefined)
19.2

Can you share its cytotoxicity at 70.5 h? I mean this compound: CN1C(=O)CCCC12CCCN(Cc1nccs1)C2 (centres undefined)
9.31

Can you look up the measured cytotoxicity at 70.5 h of CCc1c(C(=O)N2CCNC(=O)C2)cnn1C(C)(C)C for me?
-6.91
